system: Wolbachia pipientis; assay: Anti-Wolbachia Cell-Based Screen; assay type: functional; design: scale not given: in the data most compounds retested in dose-response had high values; conditions: 5 µM
Out of some 48,000 compounds screened, about 13,000 (27%) showed an effect of 50% or more. Some of the results follow.
ASSAY_READOUT: Percent Effect (%)
Numbers only, in %.

Fc1cnc(N2C[C@H]3CCC[C@@]3(COc3ccccn3)C2)nc1.O=C(O)C(F)(F)F.O=C(O)C(F)(F)F = -0.7444
CC(C)[C@H]1CN(S(C)(=O)=O)C[C@@H]1NC(=O)c1ccnc(N)c1 = -108.5
COc1c(C2CCCN2Cc2c(C)noc2C)c(C)nn1C (centres undefined) = -0.2322

Field: Percent Effect. Fill in for each record below.
1. O=S(=O)(NCCNc1ccc(-n2cccn2)nn1)c1ccccc1
2. COc1c(NC(=O)N(C)CCOc2ccccc2)c(C)nn1C
3. Cc1nc(-c2cccc(N3CCC(NC4CCOCC4)CC3)c2)cs1
4. COc1cc(C(=O)NCC2(N(C)C)CCN(C)CC2)c2ccccc2n1

1. -3.314
2. -49.81
3. -8.689
4. 126.6

Give one value of Percent Effect per listed molecule.
1. O=C(O)C(F)(F)F.O=S(=O)(C1CC1)N1C[C@H]2CCC[C@@]2(COc2ccccn2)C1
2. O=C(CC1CC1)NC[C@]12COC[C@H]1CN(c1ncc(F)cn1)C2.O=C(O)C(F)(F)F
3. CC(C)[C@@H]1CN(Cc2ccccc2C#N)C[C@H]1NC(=O)N(C)C
4. CS(=O)(=O)NCC(=O)N[C@H]1CN(c2cnccn2)C[C@@H]1C1CC1
5. COc1cc(C(=O)NC(C)(C)CN2CCN(C)CC2)c2ccccc2n1
6. CCCc1noc(CN2CCCC2c2c(C)nn(C)c2OC)n1 (centres undefined)
7. CC(C)c1nc(S(=O)(=O)N(C)c2cc(F)ccc2F)c[nH]1

1: 2.736; 2: -10.91; 3: 4.058; 4: 0.2443; 5: 96.51; 6: -3.307; 7: 7.665

Please give Percent Effect, item by item, for the list that follows.
1. O=C(O)c1cc(N2C[C@H](NC(=O)C3CCOCC3)[C@@H](C3CC3)C2)ccn1
2. COCC(=O)N1CCC2(COCc3cnc(NCc4ccco4)nc32)C1 (centres undefined)
3. CC(C)[C@H]1CN(c2cnccn2)C[C@@H]1NC(=O)C1(C#N)CCOCC1
4. CC(C)Cc1cc(C(=O)NC(C)(C)CN2CCCCCC2)on1
5. CS(=O)(=O)CCc1ncnn1-c1ccc(F)c(Cl)c1
6. CC(C)Cc1noc(COc2ccc(N(C)C(N)=O)cc2)n1
7. CCS(=O)(=O)N1C[C@H]2CCC[C@@]2(COc2ccccn2)C1.O=C(O)C(F)(F)F
8. Cc1ncsc1CN1C[C@@H]2COC[C@]2(COc2ccc(C#N)cn2)C1

[-7.348, 94.68, 90.9, 2.202, -1.677, -17.39, 18.76, -4.86]

# per-item lookup of Percent Effect; items listed below
1. CC(SCc1ccc(Br)c2cccnc12)C(N)=O (centres undefined)
2. N#CC1(C(=O)N2C[C@H]3CC[C@@H]2CN(Cc2ccncc2)C3)CCOCC1
3. CC(=O)N[C@@H]1CN(Cc2nnc(-c3ccccc3)o2)C[C@H]1C(C)C
4. CCN(Cc1csc(CS(C)(=O)=O)n1)c1cccc(CO)c1
5. COc1ccc(-n2nc(C)c(C(C)=O)c2C)cc1C(N)=O
6. O=C(O)C(F)(F)F.O=C(O)C(F)(F)F.c1ccc(OC[C@]23COC[C@H]2CN(c2ncccn2)C3)nc1
7. COC(=O)C(C)CN(C)S(=O)(=O)c1c(Br)cc2[nH]c(=O)oc2c1Cl (centres undefined)

1: -7.187; 2: -3.393; 3: 0.5134; 4: 6.548; 5: 0.6017; 6: -14.79; 7: 24.19

Reference source: ChEMBL document CHEMBL3988442
